tested on: M. phlei DSM 750; assay: Microdilution assay, MIC; type: cell-based; conditions: Mycolicibacterium phlei, DSM750; Gram-positive; MHBII media, 37° C., 20 h; read-out: MIC M. phlei DSM 750
Quick reference for MIC among some compounds
test-readout: MIC (µg/mL)

{"record-smiles": "COc1ccc(C#Cc2ccc(C(=O)N[C@@H](Cc3cnn[nH]3)C(=O)Nc3ccc(C(=O)Nc4ccc(C(=O)Nc5ccc(C(=O)O)c(O)c5OC)c(O)c4OC)cc3)cc2)cc1", "endpoint-unit": "µg/mL", "censoring-qualifier": "=", "experimental-value": 1}
{"record-smiles": "COc1c(C#Cc2ccc(NC(=O)[C@H](Cc3cnn[nH]3)NC(=O)c3ccc(NC(=O)/C(C)=C/c4ccc(O)cc4)cc3)cc2)ccc(C(=O)Nc2ccc(C(=O)O)c(O)c2OC)c1O", "endpoint-unit": "µg/mL", "censoring-qualifier": "=", "experimental-value": 0.5}
{"record-smiles": "COc1c(NC(=O)c2ccc(NC(=O)c3ccc(NC(=O)[C@H](Cc4cnn[nH]4)NC(=O)c4ccc(NC(=N)c5ccc(O)cc5)cc4)cn3)c(OC)c2O)ccc(C(=O)O)c1O", "endpoint-unit": "µg/mL", "censoring-qualifier": "=", "experimental-value": 8}
{"record-smiles": "COc1c(NC(=O)c2ccc(NC(=O)c3ccc(NC(=O)[C@H](Cc4cnn[nH]4)NC(=O)c4ccc(C#Cc5ccc(F)cc5)cc4)cc3)c(OC)c2O)ccc(C(=O)O)c1O", "endpoint-unit": "µg/mL", "censoring-qualifier": "=", "experimental-value": 0.5}
{"record-smiles": "COc1c(NC(=O)c2ccc(NC(=O)c3ccc(NC(=O)[C@H](Cc4cnn[nH]4)NC(=O)c4ccc5[nH]c(-c6ccc(O)cc6)nc5c4)cn3)c(OC)c2O)ccc(C(=O)O)c1O", "endpoint-unit": "µg/mL", "censoring-qualifier": "≥", "experimental-value": 8}
{"record-smiles": "COc1c(NC(=O)c2ccc(NC(=O)c3ccc(NC(=O)[C@H](Cc4cnn[nH]4)NC(=O)c4ccc(NC(=O)c5ccc(-c6nnn[nH]6)cc5)cc4)cc3)c(OC)c2O)ccc(C(=O)O)c1O", "endpoint-unit": "µg/mL", "censoring-qualifier": "=", "experimental-value": 8}
{"record-smiles": "COc1c(NC(=O)c2ccc(NC(=O)c3ccc(NC(=O)[C@H](Cc4cnn[nH]4)NC(=O)c4ccc(CCc5ccc(O)cc5)cc4)cc3)c(OC)c2O)ccc(C(=O)O)c1O", "endpoint-unit": "µg/mL", "censoring-qualifier": "=", "experimental-value": 4}
